These entries and their values trace back to patent US20220281976A1.

target: T1, human CD33 (human, UniProt P20138 18-364); assay: flow cytometry, human primary dendritic cells;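 note: binding of anti-CD33 antibodies (10 ug/ml, 1 h on ice) to human primary dendritic cells, detected with a PE-labelled secondary antibody, reported as flow cytometry MFI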
T1 construct: CD33 on human primary dendritic cells, macrophages, monocytes and T cells and on CHO cells expressing recombinant human CD33; also called Siglec-3; hCD33
T1 sequence (P20138 18-364): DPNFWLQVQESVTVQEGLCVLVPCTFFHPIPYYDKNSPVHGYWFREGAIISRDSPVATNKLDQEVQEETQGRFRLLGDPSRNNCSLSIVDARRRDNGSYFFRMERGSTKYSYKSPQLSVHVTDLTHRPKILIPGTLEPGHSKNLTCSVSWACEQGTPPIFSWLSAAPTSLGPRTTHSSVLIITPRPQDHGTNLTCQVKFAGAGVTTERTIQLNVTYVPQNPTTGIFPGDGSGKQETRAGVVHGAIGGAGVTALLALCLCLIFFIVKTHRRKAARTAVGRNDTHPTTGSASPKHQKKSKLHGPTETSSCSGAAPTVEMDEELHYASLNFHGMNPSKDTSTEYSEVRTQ
// DC MFI lookup, one value per entry

{"columns": ["binder", "DC MFI"],
 "data": [
  ["C-75 (antibody, V domains shown, human IgG1) VH: EVQLLESGGGLVQPGGSLRLSCAASGFTFSSYAMSWVRQAPGKGLEWVSAISASGGSTYYADSVKGRFTISRDNSKNTLYLQMNSLRAEDTAVYYCARLHMTGTASSGMDVWGQGTTVTVSS VL: DIVMTQSPDSLAVSLGERATINCKSSQSVLYSSNNKNYLAWYQQKPGQAPRLLIYGASSRATGIPDRFSGSGSGTDFTLTISRLEPEDFAVYYCQQDYSSPLTFGGGTKVEIK", 46],
  ["C-91 (antibody, V domains shown, human IgG1) VH: EVQLVESGGGLVQPGGSLRLSCAASGFTFSSYWMSWVRQAPGKGLEWVANIKSDGSEKYYVDSVKGRFTISRDNAKNSLYLQMNSLRAEDTAVYYCARDVGGDYSGSDLASYWGQGTLVTVSS VL: DIQMTQSPSSLSASVGDRVTITCRASQSISSYLNWYQQKPGKAPKLLIYAASSLQSGVPSRFSGSGSGTDFTLTISSLQPEDFATYYCQQGYDPPLTFGGGTKVEIK", 150],
  ["C-33 (antibody, V domains shown, human IgG1) VH: EVQLVESGGGLVQPGGSLRLSCAASGFTFSSYWMSWVRQAPGKGLEWVANIKSDGSEKYYVDSVKGRFTISRDNAKNSLYLQMNSLRAEDTAVYYCAREGRPRLGYAAFDIWGQGTMVTVSS VL: DIQMTQSPSSLSASVGDRVTITCRASQSISSYLNWYQQKPGKAPKLLIYAASSLQSGVPSRFSGSGSGTDFTLTISSLQPEDFATYYCQQQYDLPITFGGGTKVEIK", 1590]
]}
